From: ChEMBL document CHEMBL2150958

The molecules below have reported log10 Ki for Mu-type opioid receptor (Mus musculus).
Please interpret these as log10 of Ki where Ki is in nM.

Reference set (5 entries):
molecule: CCN(CC)C(=O)c1ccc(C(=C2CCNCC2)c2c(C)cc(NC(=O)COCC(=O)NCCCCCNC(=O)COCC(=O)NC)cc2C)cc1.Cl
log10 Ki: 2.74
--
molecule: CN1CC[C@]23c4c5ccc(O)c4O[C@H]2[C@@H](NC(=O)COCC(=O)NCCCCCNC(=O)COCC(=O)Nc2cccc4c6c([nH]c24)[C@@H]2Oc4c(OCCc7ccccc7)ccc7c4[C@@]24CCN(CC2CC2)[C@H](C7)[C@]4(O)C6)CC[C@@]3(O)[C@H]1C5.Cl
log10 Ki: 0.99
--
molecule: Cl.Oc1ccc2c3c1O[C@H]1c4[nH]c5ccccc5c4C[C@@]4(O)[C@@H](C2)N(CC2CC2)CC[C@]314 [NALTRINDOLE HYDROCHLORIDE]
log10 Ki: 1.22
--
molecule: Nc1cccc2c3c([nH]c12)[C@@H]1Oc2c(OCCc4ccccc4)ccc4c2[C@@]12CCN(CC1CC1)[C@H](C4)[C@]2(O)C3
log10 Ki: 2.08
--
molecule: CNC(=O)COCC(=O)NCCCCCNC(=O)COCC(=O)N[C@@H]1CC[C@@]2(O)[C@H]3Cc4ccc(O)c5c4[C@@]2(CCN3CC2CC2)[C@H]1O5
log10 Ki: -0.49

Query string: # lookup: log10 Ki of CNC(=O)COCC(=O)NCCCCCNC(=O)COCC(=O)N[C@H]1CC[C@@]2(O)[C@H]3Cc4ccc(O)c5c4[C@@]2(CCN3C)[C@H]1O5
Result string: 1.35

###

target: Delta-type opioid receptor (Mus musculus, UniProt P32300); assay: Displacement of [3H]-DPDPE from mouse DOR expressed in HEK293 cells
Sequence (P32300 whole entry): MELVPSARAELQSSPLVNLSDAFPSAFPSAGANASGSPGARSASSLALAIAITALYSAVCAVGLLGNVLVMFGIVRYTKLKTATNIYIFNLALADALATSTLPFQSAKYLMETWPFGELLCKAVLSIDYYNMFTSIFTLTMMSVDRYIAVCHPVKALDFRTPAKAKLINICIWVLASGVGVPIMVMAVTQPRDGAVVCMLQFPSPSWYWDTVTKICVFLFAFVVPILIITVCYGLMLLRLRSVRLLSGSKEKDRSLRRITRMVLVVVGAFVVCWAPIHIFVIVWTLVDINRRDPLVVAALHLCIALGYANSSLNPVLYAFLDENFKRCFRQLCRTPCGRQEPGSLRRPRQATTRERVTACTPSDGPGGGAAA
pKi: −log10 of the molar value.
Assign class by pKi: not lower than 7 means fulfilled; lower than 7 means not fulfilled.

Query string: Could you please find out whether CN1CC[C@]23c4c5ccc(O)c4O[C@H]2[C@@H](NC(=O)COCC(=O)NCCCCCNC(=O)COCC(=O)Nc2cccc4c6c([nH]c24)[C@@H]2Oc4c(OCCc7ccccc7)ccc7c4[C@@]24CCN(CC2CC2)[C@H](C7)[C@]4(O)C6)CC[C@@]3(O)[C@H]1C5.Cl has pKi that meets 7 or exceeds it?
Result string: not fulfilled

Query string: Could you please find out whether CNC(=O)COCC(=O)NCCCCCNC(=O)COCC(=O)N[C@@H]1CC[C@@]2(O)[C@H]3Cc4ccc(O)c5c4[C@@]2(CCN3CC2CC2)[C@H]1O5 has pKi that meets 7 or exceeds it?
Result string: fulfilled

Query string: Could you please find out whether CCN(CC)C(=O)c1ccc(C(=C2CCNCC2)c2c(C)cc(NC(=O)COCC(=O)NCCCCCNC(=O)COCC(=O)NC)cc2C)cc1.Cl has pKi that meets 7 or exceeds it?
Result string: not fulfilled

Query string: Could you please find out whether CCN(CC)C(=O)c1ccc(C(=C2CCNCC2)c2c(C)cc(NC(=O)COCC(=O)NCCCCCNC(=O)COCC(=O)N[C@@H]3CC[C@@]4(O)[C@H]5Cc6ccc(O)c7c6[C@@]4(CCN5CC4CC4)[C@H]3O7)cc2C)cc1.Cl has pKi that meets 7 or exceeds it?
Result string: fulfilled

Query string: Could you please find out whether Cl.Oc1ccc2c3c1O[C@H]1c4[nH]c5ccccc5c4C[C@@]4(O)[C@@H](C2)N(CC2CC2)CC[C@]314 [NALTRINDOLE HYDROCHLORIDE] has pKi that meets 7 or exceeds it?
Result string: fulfilled

###

target: Opioid receptors; mu and delta (Mus musculus, UniProt P42866+P32300); assay: Displacement of [3H]-DAMGO from mouse MOR/DOR expressed in HEK293 cells; type: cell-based
measure-name: pKi
Just the number, please, no unit after it.

molecule: Cl.Oc1ccc2c3c1O[C@H]1c4[nH]c5ccccc5c4C[C@@]4(O)[C@@H](C2)N(CC2CC2)CC[C@]314 [NALTRINDOLE HYDROCHLORIDE]
measure-name: pKi
obs-value: 8.46

Query string: # lookup: pKi of CNC(=O)COCC(=O)NCCCCCNC(=O)COCC(=O)N[C@H]1CC[C@@]2(O)[C@H]3Cc4ccc(O)c5c4[C@@]2(CCN3C)[C@H]1O5
Result string: 6.9

Query string: # lookup: pKi of Nc1cccc2c3c([nH]c12)[C@@H]1Oc2c(OCCc4ccccc4)ccc4c2[C@@]12CCN(CC1CC1)[C@H](C4)[C@]2(O)C3
Result string: 6.94

###

target: Opioid receptors; mu and delta (Mus musculus, UniProt P42866+P32300); experiment: Displacement of [3H]-DAMGO from mouse MOR/DOR expressed in HEK293 cells; format: cell-based
Consider the following molecules and their measured pKi readings.
Just the number, please, no unit after it.

mol: CCN(CC)C(=O)c1ccc(C(=C2CCNCC2)c2c(C)cc(NC(=O)COCC(=O)NCCCCCNC(=O)COCC(=O)NC)cc2C)cc1.Cl
pKi: 5.92
--
mol: CN1CC[C@]23c4c5ccc(O)c4O[C@H]2[C@@H](NC(=O)COCC(=O)NCCCCCNC(=O)COCC(=O)Nc2cccc4c6c([nH]c24)[C@@H]2Oc4c(OCCc7ccccc7)ccc7c4[C@@]24CCN(CC2CC2)[C@H](C7)[C@]4(O)C6)CC[C@@]3(O)[C@H]1C5.Cl
pKi: 8.21

Consider the additional molecule presented here.
Query string: Which pKi is reported with Opioid receptors; mu and delta (Mus musculus, UniProt P42866+P32300) for this entry: CNC(=O)COCC(=O)NCCCCCNC(=O)COCC(=O)N[C@@H]1CC[C@@]2(O)[C@H]3Cc4ccc(O)c5c4[C@@]2(CCN3CC2CC2)[C@H]1O5 ?
Result string: 8.38

###

biological target: Opioid receptors; mu and delta (Mus musculus, UniProt P42866+P32300); assay: Displacement of [3H]-DPDPE from mouse MOR/DOR expressed in HEK293 cells; format: cell-based
Consider the following compounds and their measured pKi readings.
Just the number, please, no unit after it.

compound: CCN(CC)C(=O)c1ccc(C(=C2CCNCC2)c2c(C)cc(NC(=O)COCC(=O)NCCCCCNC(=O)COCC(=O)N[C@@H]3CC[C@@]4(O)[C@H]5Cc6ccc(O)c7c6[C@@]4(CCN5CC4CC4)[C@H]3O7)cc2C)cc1.Cl
test-target: Opioid receptors; mu and delta (Mus musculus, UniProt P42866+P32300)
pKi: 8.6
--
compound: CNC(=O)COCC(=O)NCCCCCNC(=O)COCC(=O)N[C@@H]1CC[C@@]2(O)[C@H]3Cc4ccc(O)c5c4[C@@]2(CCN3CC2CC2)[C@H]1O5
test-target: Opioid receptors; mu and delta (Mus musculus, UniProt P42866+P32300)
pKi: 7.79
--
compound: Nc1cccc2c3c([nH]c12)[C@@H]1Oc2c(OCCc4ccccc4)ccc4c2[C@@]12CCN(CC1CC1)[C@H](C4)[C@]2(O)C3
test-target: Opioid receptors; mu and delta (Mus musculus, UniProt P42866+P32300)
pKi: 7.46
--
compound: CCN(CC)C(=O)c1ccc(C(=C2CCNCC2)c2c(C)cc(NC(=O)COCC(=O)NCCCCCNC(=O)COCC(=O)NC)cc2C)cc1.Cl
test-target: Opioid receptors; mu and delta (Mus musculus, UniProt P42866+P32300)
pKi: 5.78
--
compound: Cl.Oc1ccc2c3c1O[C@H]1c4[nH]c5ccccc5c4C[C@@]4(O)[C@@H](C2)N(CC2CC2)CC[C@]314 [NALTRINDOLE HYDROCHLORIDE]
test-target: Opioid receptors; mu and delta (Mus musculus, UniProt P42866+P32300)
pKi: 8.26

Query string: # lookup: pKi of CN1CC[C@]23c4c5ccc(O)c4O[C@H]2[C@@H](NC(=O)COCC(=O)NCCCCCNC(=O)COCC(=O)Nc2cccc4c6c([nH]c24)[C@@H]2Oc4c(OCCc7ccccc7)ccc7c4[C@@]24CCN(CC2CC2)[C@H](C7)[C@]4(O)C6)CC[C@@]3(O)[C@H]1C5.Cl
Result string: 7.34
